system: SR leukemia; assay: NCI-60 one-dose screen, 48 h (100 = growth as untreated, 0 = no growth, -100 = all killed); conditions: 10 µM unless noted
The panel holds about 83,000 compounds, 20% with a hit somewhere; the sample as a whole holds those more often. The source made the active and inactive calls. How the source made its calls: active means growth percent below 10; inactive means the rest.
Kindly supply the reported growth values for the records listed here.

Exam item: Query (molecule): CCCNC(=O)Oc1ccc(/C(=C(/C)Cc2ccc(OC)cc2)c2ccc(OCCN3CCCC3)cc2)cc1 ; field requested: growth
Marked response: -20.2% (active)

Exam item: Quick one: growth of CC(C)(CNC1CCCCC1)OC(=O)c1ccccc1 ?
Marked response: 106% (inactive)

Exam item: # lookup: growth of COc1ccc(-c2nc(N)n(C(=S)Nc3ccccc3)n2)cc1
Marked response: 90.8% (inactive)

Exam item: Name the recorded growth for COC(=O)/C=C/c1cc(O)c2oc(-c3ccc(O)c(O)c3)c(C(=O)OC)c2c1 .
Marked response: 22% (inactive)

Exam item: Give its growth value. Item: O=C(/C=C\c1ccccc1Cl)c1ccccc1
Marked response: 67.6% (inactive)

Exam item: GET /values?readout=growth&item= COc1ccc(CN2C(=O)/C(=C\C(=O)c3ccc(OCCN4CCCC4)cc3)c3ccccc32)cc1
Marked response: -14.2% (active)

Exam item: Would you kindly share the measured growth for C/C=C/C/C=C/[C@H](C)C[C@H](O)[C@@H]1C[C@@H]2O[C@H]2/C=C/[C@H](O)[C@@H](O)/C=C/C[C@H](C)CC(=O)O1 ?
Marked response: 69.9% (inactive)

Exam item: Which growth value is on record for CCCCCCCCCc1cc[n+](CC(=O)c2ccc([N+](=O)[O-])cc2)cc1 ?
Marked response: -14.3% (active)

Exam item: Param item = CC(C)(C)c1ccc(OCCOC(=O)CBr)cc1 ; retrieve measured growth.
Marked response: 44.7% (inactive)

Exam item: GET /values?readout=growth&item= CC1Cc2cc(F)ccc2-n2cccc21 (stereo unspecified)
Marked response: 114% (inactive)

Exam item: Item under review: CSc1nc(N)n2nccc2n1 . Reported growth?
Marked response: 111% (inactive)
